Molecular target: Gamma-butyrobetaine dioxygenase (Pseudomonas sp. (strain AK-1), UniProt P80193)
Sequence (P80193 whole entry): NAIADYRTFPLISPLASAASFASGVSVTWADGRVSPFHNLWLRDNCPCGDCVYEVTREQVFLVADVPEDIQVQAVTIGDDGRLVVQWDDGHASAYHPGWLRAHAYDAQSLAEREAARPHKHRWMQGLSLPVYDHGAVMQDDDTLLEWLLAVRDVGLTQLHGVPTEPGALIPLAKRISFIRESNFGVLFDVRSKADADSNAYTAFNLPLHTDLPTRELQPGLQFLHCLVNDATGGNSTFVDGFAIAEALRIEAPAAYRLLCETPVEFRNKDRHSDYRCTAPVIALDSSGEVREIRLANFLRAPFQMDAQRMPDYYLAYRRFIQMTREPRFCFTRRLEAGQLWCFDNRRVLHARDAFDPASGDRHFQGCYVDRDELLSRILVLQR
Experiment: Binding affinity to Pseudomonas sp. AK1 BBOX by intrinsic tryptophan fluorescence quenching assay
MEASURED ENDPOINT: Kd (µM)

INSERT INTO results (cpd_smiles, study_target, measured_endpoint, reported) VALUES
  ('O=C(N[C@@H](Cc1c[nH]c2ccccc12)C(=O)O)c1nc(Cl)c2ccccc2c1O', 'Gamma-butyrobetaine dioxygenase (Pseudomonas sp. (strain AK-1), UniProt P80193)', 'Kd', 29),
  ('O=C(N[C@H](Cc1ccccc1)C(=O)O)c1nc(Cl)c2ccccc2c1O', 'Gamma-butyrobetaine dioxygenase (Pseudomonas sp. (strain AK-1), UniProt P80193)', 'Kd', 82),
  ('O=C(O)CC[C@H](NC(=O)c1nc(Cl)c2ccccc2c1O)C(=O)O', 'Gamma-butyrobetaine dioxygenase (Pseudomonas sp. (strain AK-1), UniProt P80193)', 'Kd', 64),
  ('O=C(N[C@@H](Cc1ccccc1)C(=O)O)c1nc(Cl)c2ccccc2c1O', 'Gamma-butyrobetaine dioxygenase (Pseudomonas sp. (strain AK-1), UniProt P80193)', 'Kd', 26);

(P) O=C(O)C[C@H](NC(=O)c1nc(Cl)c2ccccc2c1O)C(=O)O
(Q) CC(C)[C@@H](NC(=O)c1nc(Cl)c2ccccc2c1O)C(=O)O
Query: Could you check which of P and Q has a smaller value for Kd? When you have decided, please share the label of that item.
Reply: P
(P: 91 µM, Q: 144 µM)
